# procedure-text: Volume of distribution at steady state in Sprague-Dawley rat at 1 mg/kg, iv
# Type: ADME, organism-based
# Parameters: dose 1 mg/kg, route intravenous
# conditions: in vivo, read-out: Vdss
property-label: Vd (L/kg)
The reply should contain only the number, in L/kg.

Value lookup for Vd; key = `CCOC(=O)C1=C(C)N/C(=C/c2cc(C)n(-c3ccc(C(F)(F)F)cc3)c2C)C1=O`
19

---

# procedure-text: Apparent terminal half life in Sprague-Dawley rat at […], iv
# Assay type: ADME, organism-based
# Parameters: dose 4.5 mg/kg, route intravenous
# conditions: in vivo, read-out: betat1/2(app) (converted)
property-label: half-life

Value lookup for half-life; key = `CCOC(=O)C1=C(C)N/C(=C/c2cc(C)n(-c3ccccc3C(F)(F)F)c2C)C1=O`
12 h

---

# procedure-text: Apparent terminal half life in Sprague-Dawley rat at 19 mg/kg, ip
# Format: ADME, organism-based
# Parameters: dose 19 mg/kg, route intraperitoneal
# conditions: in vivo, read-out: betat1/2(app) (converted)
property-label: half-life
Returns: string containing the number followed by the unit.

Value lookup for half-life; key = `CCOC(=O)C1=C(C)N/C(=C/c2cc(C)n(-c3ccccc3C(F)(F)F)c2C)C1=O`
9.1 h

---

# System: Liver
# procedure-text: Intrinsic clearance in mouse liver microsomes at 1 uM by LC/MS analysis
# Type: ADME, Microsome
# conditions: microsomes, 1 µM
# reported Microsomal intrinsic clearance (CLint); entries follow
The reply should contain only the number, in µL/min/mg.

Value lookup for Microsomal intrinsic clearance (CLint); key = `CCOC(=O)C1=C(C)N/C(=C/c2ccn(-c3ccc(C(F)(F)F)cc3)c2)C1=O`
140

Value lookup for Microsomal intrinsic clearance (CLint); key = `CCOC(=O)C1=C(C)N/C(=C/c2cc(C)n(-c3ccc(F)cc3F)c2C)C1=O`
77

---

# procedure-text: Plasma clearance in Sprague-Dawley rat at […], iv
# Type: ADME, organism-based
# Design: dose 4.5 mg/kg, route intravenous
property-label: clearance (mL/min/kg)
The reply should contain only the number, in mL/min/kg.

Value lookup for clearance; key = `CCOC(=O)C1=C(C)N/C(=C/c2cc(C)n(-c3ccccc3C(F)(F)F)c2C)C1=O`
73

---

# procedure-text: Apparent terminal half life in Sprague-Dawley rat at 20 mg/kg, po
# Type: ADME, organism-based
# Set-up: dose 20 mg/kg, route oral
# conditions: in vivo, read-out: betat1/2(app) (converted)
property-label: half-life (h)
The reply should contain only the number, in h.

Value lookup for half-life; key = `CCOC(=O)C1=C(C)N/C(=C/c2cc(C)n(-c3ccccc3C(F)(F)F)c2C)C1=O`
7.9

---

# procedure-text: Drug excretion in Sprague-Dawley rat urine at […], iv
# Type: ADME, organism-based
# Set-up: dose 4.5 mg/kg, route intravenous
# conditions: read-out: Drug excretion
property-label: dose excreted (%)
The reply should contain only the number, in %.

Value lookup for dose excreted; key = `CCOC(=O)C1=C(C)N/C(=C/c2cc(C)n(-c3ccccc3C(F)(F)F)c2C)C1=O`
0.05

---

# procedure-text: Intrinsic clearance in mouse liver microsomes at 1 uM by LC/MS analysis
# Type: ADME, Microsome
# conditions: liver microsomes, read-out: CLH
property-label: microsomal CLint at 1 µM (µL/min/mg)
The reply should contain only the number, in µL/min/mg.

Value lookup for microsomal CLint at 1 µM; key = `CCOC(=O)C1=C(C)N/C(=C/c2cc(C)n(-c3cc(OC)c(OC)c(OO)c3)c2C)C1=O`
63

Value lookup for microsomal CLint at 1 µM; key = `CCOC(=O)C1=C(O)/C(=C\c2cc(C)n(-c3ccc(F)cc3)c2C)N=C1C`
94

---

# procedure-text: Drug metabolism in mouse liver microsomes assessed as mono-oxygenation at 1 uM by LC/MS analysis
# Assay type: ADME, Microsome
property-label: Drug metabolism

For orientation, consider the following solved cases.
cpd-smiles	Drug metabolism
CC1=C(C(=O)OC(C)(C)C)C(=O)/C(=C\c2cc(C)n(-c3ccccc3C(F)(F)F)c2C)N1	Active
CC1=C(C(N)=O)C(=O)/C(=C\c2cc(C)n(-c3ccccc3C(F)(F)F)c2C)N1	Active
CCOC(=O)C1=C(C)N/C(=C/c2cc(C)n(-c3ccc(SC)cc3)c2C)C1=O	Active
CCOC(=O)C1=C(C)N/C(=C/c2cc(C)n(-c3ccc(SC(F)(F)F)cc3)c2C)C1=O	Active
CCOC(=O)C1=C(C)N/C(=C/c2cc(C)n(-c3ccc(OC)cc3)c2C)C1=O	Active

Value lookup for Drug metabolism; key = `CCOC(=O)C1=C(O)/C(=C\c2cc(C)n(-c3ccc(F)cc3)c2C)N=C1C`
Active

Value lookup for Drug metabolism; key = `CCOC(=O)C1=C(C)N/C(=C/c2cc(CC)n(-c3ccccc3C(F)(F)F)c2CC)C1=O`
Active

Value lookup for Drug metabolism; key = `CCOC(=O)C1=C(C)N/C(=C/c2cc(C)n(-c3ccc(F)cc3F)c2C)C1=O`
Active

Value lookup for Drug metabolism; key = `CCOC(=O)C1=C(C)N/C(=C/c2ccn(-c3ccc(C(F)(F)F)cc3)c2)C1=O`
Active

Value lookup for Drug metabolism; key = `CCOC(=O)C1=C(C)N/C(=C/c2cc(C)n(-c3ccccc3C(F)(F)F)c2C)C1=O`
Active

Value lookup for Drug metabolism; key = `CCOC(=O)C1=C(C)N/C(=C/c2cc(C)n(-c3ccncc3)c2C)C1=O`
Active

---

# procedure-text: Volume of distribution at steady state in Sprague-Dawley rat at […], iv
# Type: ADME, organism-based
# Design: dose 4.5 mg/kg, route intravenous
# conditions: in vivo, read-out: Vdss
property-label: Vd

Value lookup for Vd; key = `CCOC(=O)C1=C(C)N/C(=C/c2cc(C)n(-c3ccccc3C(F)(F)F)c2C)C1=O`
13 L/kg

---

# procedure-text: Drug excretion in Sprague-Dawley rat urine at 19 mg/kg, ip
# Format: ADME, organism-based
# Parameters: dose 19 mg/kg, route intraperitoneal
# conditions: read-out: Drug excretion
property-label: dose excreted
Returns: string containing the number followed by the unit.

Value lookup for dose excreted; key = `CCOC(=O)C1=C(C)N/C(=C/c2cc(C)n(-c3ccccc3C(F)(F)F)c2C)C1=O`
0.01%

---

# procedure-text: in vivo
# conditions: Sprague-Dawley, rat, po, 20 mg/kg
property-label: Tmax (h)
The reply should contain only the number, in h.

Value lookup for Tmax; key = `CCOC(=O)C1=C(C)N/C(=C/c2cc(C)n(-c3ccccc3C(F)(F)F)c2C)C1=O`
3.33

---

# procedure-text: Cmax in Sprague-Dawley rat at 20 mg/kg, po
# Format: ADME, organism-based
# Design: dose 20 mg/kg, route oral
# conditions: in vivo
property-label: Cmax (nM)
The reply should contain only the number, in nM.

Value lookup for Cmax; key = `CCOC(=O)C1=C(C)N/C(=C/c2cc(C)n(-c3ccccc3C(F)(F)F)c2C)C1=O`
110

---

# procedure-text: Drug excretion in Sprague-Dawley rat urine at 20 mg/kg, po
# Type: ADME, organism-based
# Parameters: dose 20 mg/kg, route oral
# conditions: read-out: Drug excretion
property-label: dose excreted (%)
The reply should contain only the number, in %.

Value lookup for dose excreted; key = `CCOC(=O)C1=C(C)N/C(=C/c2cc(C)n(-c3ccccc3C(F)(F)F)c2C)C1=O`
0.08

---

# procedure-text: Cmax in Sprague-Dawley rat at 19 mg/kg, ip
# Assay type: ADME, organism-based
# Design: dose 19 mg/kg, route intraperitoneal
# conditions: in vivo
property-label: Cmax (µM)
The reply should contain only the number, in µM.

Value lookup for Cmax; key = `CCOC(=O)C1=C(C)N/C(=C/c2cc(C)n(-c3ccccc3C(F)(F)F)c2C)C1=O`
3.3

---

# reported t1/2; entries follow
# System: Liver microsomes
# procedure-text: Half life in human liver microsomes
# Type: ADME, Microsome
The reply should contain only the number, in min.

cpd-smiles	t1/2 / min
CCOC(=O)C1=C(C)N/C(=C/c2cc(C)n(-c3ccccc3C(F)(F)F)c2C)C1=O	58

We now examine a further molecule.
Value lookup for t1/2; key = `CCOC(=O)C1=C(C)N/C(=C/c2cc(C)n(-c3ccc(C(F)(F)F)cc3)c2C)C1=O`
35

---

# procedure-text: in vivo
# conditions: Sprague-Dawley, rat, ip, 19 mg/kg
property-label: Tmax (min)
The reply should contain only the number, in min.

Value lookup for Tmax; key = `CCOC(=O)C1=C(C)N/C(=C/c2cc(C)n(-c3ccccc3C(F)(F)F)c2C)C1=O`
15

---

# procedure-text: Partition coefficient, log D of the compound at pH 7.4 by HPLC analysis
# Assay type: physicochemical
# conditions: octanol/water
Returns Condition met if the recorded logD is greater than or equal to 3, and Condition not met otherwise.

These recorded examples may help you get a feel for the data.
cpd-smiles	label-class
CCOC(=O)C1=C(C)N/C(=C/c2cc(C)n(-c3cccc(C(F)(F)F)c3)c2C)C1=O	Condition met
CCOC(=O)C1=C(C)N/C(=C/c2cc(C)n(-c3cccc(OC)c3)c2C)C1=O	Condition not met
CCOC(=O)C1=C(C)N/C(=C/c2cc(C)n(-c3ccncc3)c2C)C1=O	Condition met
CCOC(=O)C1=C(C)N/C(=C/c2cc(C)n(-c3ccc(Cl)cc3)c2C)C1=O	Condition met
CCOC(=O)C1=C(C)N/C(=C/c2cc(C)n(-c3cc(OC)c(OC)c(OO)c3)c2C)C1=O	Condition not met

Decide: logD of `CCOC(=O)C1=C(C)N/C(=C/c2cc(C)n(-c3ccccc3C(F)(F)F)c2C)C1=O` >= 3?
Condition met

Decide: logD of `CCOC(=O)C1=C(C)N/C(=C/c2cc(C)n(-c3ccc(C(F)(F)F)cc3)c2C)C1=O` >= 3?
Condition met
